B1: r4_43_TrROS_Hall (parent)
chain: DLVTIKVPLENLEEIKKAAEKAGFKIVSISYDKENKEVTIVIEKKK

variants of: B1; assay: folding stability dG (cDNA display proteolysis); higher = more stable; conditions: PBS, room temperature
measured.parameter: folding stability dG (kcal/mol)
Numbers only, in kcal/mol.

See these solved cases before continuing.
DLVAIKVPLENLEEIKKAAEKAGFKIVSISYDKENKEVTIVIEKKK [T4A] | 3.92
DLVTIKVPLENLEEIKKAAFKAGFKIVSISYDKENKEVTIVIEKKK [E20F] | 4.07
DLVTIKVPLENLEEIKKAAEKAGFKVVSISYDKENKEVTIVIEKKK [I26V] | 3.41
DLVTIKVPLENLEEIKKAAEKAPFKIVSISYDKENKEVTIVIEKKK [G23P] | 2.92
DLVTIKVPLENLEEIKKAAEKAMFKIVSISYDKENKEVTIVIEKKK [G23M] | 3.46
DLVTWKVPLENLEEIKKAAEKAGFKIVSISYDKENKEVTIVIEKKK [I5W] | 4.23
DLVTIKMPLENLEEIKKAAEKAGFKIVSISYDKENKEVTIVIEKKK [V7M] | 3.63
DLVTIKVPLENLEEIKKAAEKAGFKIVSISYDKCNKEVTIVIEKKK [E34C] | 3.63
DLVTIKVPLENLEEIKKAAEKAGFTIVSISYDKENKEVTIVIEKKK [K25T] | 3.58
DLVTIKVPLENLSEIKKAAEKAGFKIVSISYDKENKEVTIVIEKKK [E13S] | 3.54

Report folding stability dG for every entry below.
1. DLVTIKVPLENLEEIKKAAEKASFKIVSISYDKENKEVTIVIEKKK [G23S]
2. DLVTIKVPLEWLEEIKKAAEKAGFKIVSISYDKENKEVTIVIEKKK [N11W]
3. DLVTIKVQLENLEEIKKAAEKAGFKIVSISYDKENKEVTIVIEKKK [P8Q]

Result:
[3.28, 3.63, 3.53]

I'm hoping you can list folding stability dG for every variant here, please.
1. DLVTIKVPLENLEEIKKAAEKAGFKMVSISYDKENKEVTIVIEKKK [I26M]
2. ALVTIKVPLENLEEIKKAAEKAGFKIVSISYDKENKEVTIVIEKKK [D1A]

Result:
[3.31, 3.81]

Provide the reported folding stability dG of each entry below, same order.
1. DLVTIKVPLENLEEIKKAAEKAGFKIVSISYDKENKEVTIVIECKK [K44C]
2. DLVTIKVPLENLEEIKKAAEKAGFKIVSISYDVENKEVTIVIEKKK [K33V]
3. DLVTIKVALENLEEIKKAAEKAGFKIVSISYDKENKEVTIVIEKKK [P8A]
4. DLVTIKVPLENLEEIKKAAEKAGFKIVSISYPKENKEVTIVIEKKK [D32P]

Result:
[3.76, 3.73, 3.6, 2.77]

These measurements were taken from the MegaScale stability set (Tsuboyama et al. 2023).
